Examples of molecules with documented MIC follow.
# Test system: EcN
# TEST NAME: Minimal inhibitory concentration (MIC) of EcN strains
# Type: cell-based, Escherichia coli Nissle 1917
# CONDITION SET: Escherichia coli; strain EcN
Express it in µg/mL; write the number only.

[[record]]
structure_as_smiles = "[H]/N=C(/N)N[C@H]1[C@H](O)[C@@H](O)[C@H](O[C@@H]2O[C@@H](C)[C@](O)(C=O)[C@H]2O[C@@H]2O[C@@H](CO)[C@H](O)[C@@H](O)[C@@H]2NC)[C@@H](N/C(N)=N\\[H])[C@@H]1O"
result_value = 25


API: the following record is the query input.
Data request: Fill in the blank: the reported MIC of `CN[C@@H]1[C@H](O)[C@H](NC)[C@H]2O[C@@]3(O)C(=O)C[C@@H](C)O[C@H]3O[C@@H]2[C@H]1O` is ____.
Data returned: 50
